# targetSystem: CCK receptor
# assayInfo: 125I-CCK-33 receptor binding assay
# statedConditions: tissue not stated for the values (methods given for rat pancreas and guinea pig brain cortex membranes); read-out: IC50, inhibition of specific 125I-CCK-33 binding
With a cut-off of 3000 nM, any IC50 strictly below it is called True; any IC50 meeting it or above is called False.

Example entries begin here.
# molecule, classification
measured = [
    ("CCOC(=O)C(CCc1ccccc1)NC1CCc2ccccc2N(C)C1=O (single isomer, unassigned)", "False"),
    ("CC(=O)N[C@H](Cc1c[nH]c2ccccc12)C(=O)NC1CCc2ccccc2N(CC(=O)OC(C)(C)C)C1=O (single isomer, unassigned)", "True"),
    ("CC(=O)N[C@@H](Cc1c[nH]c2ccccc12)C(=O)NC1CCc2ccccc2N(CC(=O)OC(C)(C)C)C1=O (single isomer, unassigned)", "True"),
    ("COC(=O)CN1C(=O)C(NCc2c[nH]c3ccccc23)CCc2ccccc21 (racemic)", "False"),
]

Continue with the molecule presented below.
Field: below-cutoff. Rule: recorded IC50 strictly less than 3000 nM. Subject: CC(C)(C)OC(=O)CN1C(=O)C(NC(=O)[C@H](Cc2c[nH]c3ccccc23)NC(=O)OCc2ccccc2)CCc2ccccc21 (single isomer, unassigned) True
